Cited source for all entries: patent US20040171680A1

Recorded pEC50 values for a group of molecules are listed next.
molecular target: PPARα (Rattus norvegicus); construct: H4IIE rat hepatoma cell line was obtained from ATCC; host or cells: H4IIE rat hepatoma cells; test: HD bDNA Assay (HD gene induction); assay type: cell-based; details: in section F; target not named there, values match the PPARα column; read-out: EC50
Sequence (P37230 whole entry): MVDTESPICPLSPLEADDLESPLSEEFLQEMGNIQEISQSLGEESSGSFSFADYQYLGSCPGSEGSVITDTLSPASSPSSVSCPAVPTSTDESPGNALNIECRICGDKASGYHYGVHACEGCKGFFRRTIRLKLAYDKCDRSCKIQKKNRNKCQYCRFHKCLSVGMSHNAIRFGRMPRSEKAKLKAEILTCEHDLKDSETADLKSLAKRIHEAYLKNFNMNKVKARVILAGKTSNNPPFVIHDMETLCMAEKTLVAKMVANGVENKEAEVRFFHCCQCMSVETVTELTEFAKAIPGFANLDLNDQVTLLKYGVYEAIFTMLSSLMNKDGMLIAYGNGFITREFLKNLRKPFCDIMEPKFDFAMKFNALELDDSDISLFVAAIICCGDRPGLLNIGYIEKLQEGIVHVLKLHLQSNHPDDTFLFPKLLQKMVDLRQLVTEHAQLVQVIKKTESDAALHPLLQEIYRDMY
Note on units: pEC50 is unitless, being -log10 of a concentration expressed in mol/L.

Kindly note the recorded pEC50 for CCN(C(=O)Nc1ccc(OC(F)(F)F)cc1)C1CCc2cc(SC(C)(C)C(=O)O)ccc2C1 (stereo not drawn) , which is 7.64

Now look at this one.
Kindly note the recorded pEC50 for C=CCCCN(C(=O)Nc1ccc(OC(F)(F)F)cc1)C1Cc2ccc(SC(C)(C)C(=O)O)cc2C1 (stereo not drawn) , which is 6.90

====

Target: PPARδ (Homo sapiens, UniProt Q03181)
Construct: a Gal4-Luciferase reporter is co-transfected
Sequence (Q03181 171-441 limits assumed): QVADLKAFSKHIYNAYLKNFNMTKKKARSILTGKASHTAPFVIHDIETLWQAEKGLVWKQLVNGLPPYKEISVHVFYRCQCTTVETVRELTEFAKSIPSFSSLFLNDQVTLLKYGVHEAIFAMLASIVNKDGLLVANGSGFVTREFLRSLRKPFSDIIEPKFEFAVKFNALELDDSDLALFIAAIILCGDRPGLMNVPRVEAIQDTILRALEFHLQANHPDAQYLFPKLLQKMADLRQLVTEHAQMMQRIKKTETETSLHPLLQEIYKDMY
Assay: Transfection Assay for PPARδ Receptors (PPAR-Gal4 / Gal4-Luciferase reporter in HEK293 cells)
Format: cell-based
Settings: fold induction; PPARδ standard: FI = 36.1
Recorded PPARδ FI values for a group of compounds are listed next.
The answer should be a number; do not append a unit.

Recorded PPARδ FI, per entry:
Kindly note the recorded PPARδ FI for CCCN(C(=O)Nc1cc(C)cc(C)c1)C1Cc2ccc(SC(C)(C)C(=O)O)cc2C1 (centres unmarked) , which is 0.8

Kindly note the recorded PPARδ FI for CCCCCN(C(=O)Nc1ccc(OC(F)(F)F)cc1)C1Cc2ccc(SC(C)(C)C(=O)O)cc2C1 (centres unmarked) , which is 5.9

Kindly note the recorded PPARδ FI for CCN(C(=O)Nc1ccc(N(C)C)cc1)C1Cc2ccc(SC(C)(C)C(=O)O)cc2C1 (centres unmarked) , which is 0.8

Kindly note the recorded PPARδ FI for CCCCCN(C(=O)Nc1ccc(SC(F)(F)F)cc1)C1Cc2ccc(SC(C)(C)C(=O)O)cc2C1 (centres unmarked) , which is 2.5

***
Kindly note the recorded PPARδ FI for CCCN(C(=O)Nc1ccc(OC(F)(F)F)cc1)C1CCc2ccc(SC(C)(C)C(=O)O)cc2C1 (centres unmarked) , which is 6.0

Kindly note the recorded PPARδ FI for CC(C)(Sc1ccc2c(c1)CC(N(CCCC1CCCC1)C(=O)Nc1ccccc1)C2)C(=O)O (centres unmarked) , which is 1.9

Kindly note the recorded PPARδ FI for CCN(C(=O)Nc1cccc(OC(F)(F)F)c1)C1Cc2ccc(SC(C)(C)C(=O)O)cc2C1 (centres unmarked) , which is 2.1

Kindly note the recorded PPARδ FI for CCN(C(=O)Nc1ccc(OC(F)(F)F)c(Br)c1)C1Cc2ccc(SC(C)(C)C(=O)O)cc2C1 (centres unmarked) , which is 4.5
